Target: T1, recombinant human IL-23R/Fc chimera (R&D Systems) (human, UniProt Q5VWK5 24-355)
T1 construct: Bought; also called rhIL23RFc
T1 sequence (looked up): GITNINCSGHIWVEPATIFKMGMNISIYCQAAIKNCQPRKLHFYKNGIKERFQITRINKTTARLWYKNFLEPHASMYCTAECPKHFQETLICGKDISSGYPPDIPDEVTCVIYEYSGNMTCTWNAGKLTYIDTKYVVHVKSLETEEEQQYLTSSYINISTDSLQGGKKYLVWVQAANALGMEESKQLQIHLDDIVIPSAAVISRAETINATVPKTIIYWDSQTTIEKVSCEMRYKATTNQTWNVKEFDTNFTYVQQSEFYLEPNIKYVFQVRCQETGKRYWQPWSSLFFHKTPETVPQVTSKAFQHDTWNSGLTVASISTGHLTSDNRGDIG
Assay: competition ELISA vs IL-23
readout: Ratio IC50 to 056-53.H4E IC50
API note: the answer field is a bare number with no unit suffix.

Please give the measured Ratio IC50 to 056-53.H4E IC50 for this binder: 105-08-1C3 ATRIMER complex (designed binder) EPPTQKPKKIVNAKKDVVNTKMFEELKSRLDTLAQEVALLKEQQALQTVCLKGTKVHMKCFLAFTQTKTFHEASEDCISRGGTLSTPQTGSENDALYEYLRQSVGNEAEIWLGLNGSQLTDTWVDMTGARIAYKNWETEITAQPDGGWGYFGENCAVLSGAANGKWFDKRCRDQLPYICQFGIV
3.6

Please give the measured Ratio IC50 to 056-53.H4E IC50 for this binder: 101-51-1A9 ATRIMER complex (designed binder) EPPTQKPKKIVNAKKDVVNTKMFEELKSRLDTLAQEVALLKEQQALQTVCLKGTKVHMKCFLAFTQTKTFHEASEDCISRGGTLSTPQTGSENDALYEYLRQSVGNEAEIWLGLNGSALTNTWVDMTGARIAYKNWEPARQPQPGGGFGYFGENCAVLSGAANGKWFDKRCRDQLPYICQFGIV
2.2

Please give the measured Ratio IC50 to 056-53.H4E IC50 for this binder: 105-20-1B3 ATRIMER complex (designed binder) EPPTQKPKKIVNAKKDVVNTKMFEELKSRLDTLAQEVALLKEQQALQTVCLKGTKVHMKCFLAFTQTKTFHEASEDCISRGGTLSTPQTGSENDALYEYLRQSVGNEAEIWLGLNGSALTNTWVDMTGARIAYKNWETEITAQPDGGFGYFGENCAVLSGAANGKWFDKRCRDQLPYICQFGIV
1.2

Please give the measured Ratio IC50 to 056-53.H4E IC50 for this binder: 105-08-1D12 ATRIMER complex (designed binder, not shown: C-terminal tag: His/Myc (pANA4) or HA-StrepII (pANA10)) EPPTQKPKKIVNAKKDVVNTKMFEELKSRLDTLAQEVALLKEQQALQTVCLKGTKVHMKCFLAFTQTKTFHEASEDCISRGGTLSTPQTGSENDALYEYLRQSVGNEAEIWLGLNGSVLTDTWVDMTGARIAYKNWETEITAQPDGGFGYFGENCAVLSGAANGKWFDKRCRDQLPYICQFGIV
4.6

Please give the measured Ratio IC50 to 056-53.H4E IC50 for this binder: 105-08-2F6 ATRIMER complex (designed binder) EPPTQKPKKIVNAKKDVVNTKMFEELKSRLDTLAQEVALLKEQQALQTVCLKGTKVHMKCFLAFTQTKTFHEASEDCISRGGTLSTPQTGSENDALYEYLRQSVGNEAEIWLGLNGSAYTNTWVDMTGARIAYKNWETEITAQPDGGFGYFGENCAVLSGAANGKWFDKRCRDQLPYICQFGIV
2.4
